Catalogue of Kd values
# target-or-test-system: T1, CEACAM1 (Sino Biological) (human, UniProt P13688 35-428, limits assumed)
# T1 construct: may be the same as CEACAM1-HIS; also called hCEACAM1; biotinylated soluble CEACAM1
# T1 sequence: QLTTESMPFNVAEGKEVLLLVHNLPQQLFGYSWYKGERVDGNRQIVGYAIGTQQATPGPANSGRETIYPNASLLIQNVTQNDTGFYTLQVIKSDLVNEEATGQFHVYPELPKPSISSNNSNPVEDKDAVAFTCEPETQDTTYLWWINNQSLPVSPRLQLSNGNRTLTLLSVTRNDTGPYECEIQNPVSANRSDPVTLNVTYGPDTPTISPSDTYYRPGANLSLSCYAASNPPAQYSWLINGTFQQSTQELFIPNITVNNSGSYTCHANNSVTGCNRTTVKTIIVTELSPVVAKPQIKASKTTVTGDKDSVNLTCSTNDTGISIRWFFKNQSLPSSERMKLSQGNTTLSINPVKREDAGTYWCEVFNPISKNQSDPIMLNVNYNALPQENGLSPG
# method-summary: SPR single-cycle
measured-endpoint: Kd

[[record]]
binder = "He4/L4#2 (antibody, IgG4, V domains shown, IgG4 S241P, kappa) VH: EVQLLESGGGLVQPGGSLRLSCAASGFSFSDYYLYWVRQAPGKGLEWVATISVGGGQTSYADSVKGRFTISRDNSKNTLYLQMNSLRAEDTAMYYCTRALYYGPAWFAYWGQGTLVTVSS VL: DIVMTQSPDSLAVSLGERATINCKSSQSLLNSANQKNYLAWYQQKPGQPPKLLIYFASTRESGVPDRFSGSGSGTDFTLTISSLQAEDVAVYYCQSHYPYPYTFGGGTKVEIK"
measured_endpoint = "Kd"
obs_value = "127 nM"

[[record]]
binder = "Parent VH/L5 (antibody, IgG4, V domains shown, IgG4 S241P, kappa) VH: EVQLLESGGGLVQPGGSLRLSCAASGFSFSDYYLYWVRQAPGKGLEWVATISVGGGQTSYADSVKGRFTISRDNSKNTLYLQMNSLRAEDTAMYYCTRGLYYGPAWFAYWGQGTLVTVSS VL: DIVMTQSPDSLAVSLGERATINCKSSQSLLNSANQKNYLAWYQQKPGQPPKLLIYFASTRESGVPDRFSGSGSGTDFTLTISSLQAEDVAVYYCQSHYPFAFTFGGGTKVEIK"
measured_endpoint = "Kd"
obs_value = "66 nM"

[[record]]
binder = "He4/L6 (antibody, IgG4, V domains shown, IgG4 S241P, kappa) VH: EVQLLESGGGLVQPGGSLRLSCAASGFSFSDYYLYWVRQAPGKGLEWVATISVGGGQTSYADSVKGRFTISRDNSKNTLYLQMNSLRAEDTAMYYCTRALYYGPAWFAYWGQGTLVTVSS VL: DIVMTQSPDSLAVSLGERATINCKSSQSLLNSANQKNYLAWYQQKPGQPPKLLIYFASTRESGVPDRFSGSGSGTDFTLTISSLQAEDVAVYYCQSHYPFSFTFGGGTKVEIK"
measured_endpoint = "Kd"
obs_value = "72 nM"

[[record]]
binder = "Parent VH/L3 (antibody, IgG4, V domains shown, IgG4 S241P, kappa) VH: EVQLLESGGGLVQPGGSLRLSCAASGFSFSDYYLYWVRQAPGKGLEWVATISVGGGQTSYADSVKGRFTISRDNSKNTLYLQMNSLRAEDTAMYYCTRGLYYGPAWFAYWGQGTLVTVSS VL: DIVMTQSPDSLAVSLGERATINCKSSQSLLNSANQKNYLAWYQQKPGQPPKLLIYFASTRESGVPDRFSGSGSGTDFTLTISSLQAEDVAVYYCQSHFPFPFTFGGGTKVEIK"
measured_endpoint = "Kd"
obs_value = "63 nM"

[[record]]
binder = "He17/L3 (antibody, IgG4, V domains shown, IgG4 S241P, kappa) VH: EVQLLESGGGLVQPGGSLRLSCAASGFSFSDYYLYWVRQAPGKGLEWVATISVGGGQTSYADSVKGRFTISRDNSKNTLYLQMNSLRAEDTAMYYCTRARTYGPAWFAYWGQGTLVTVSS VL: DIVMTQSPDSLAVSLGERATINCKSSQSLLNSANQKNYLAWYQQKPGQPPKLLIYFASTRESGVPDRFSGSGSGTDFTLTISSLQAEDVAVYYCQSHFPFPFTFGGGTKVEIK"
measured_endpoint = "Kd"
obs_value = "95 nM"

[[record]]
binder = "He4/L20 (antibody, IgG4, V domains shown, IgG4 S241P, kappa) VH: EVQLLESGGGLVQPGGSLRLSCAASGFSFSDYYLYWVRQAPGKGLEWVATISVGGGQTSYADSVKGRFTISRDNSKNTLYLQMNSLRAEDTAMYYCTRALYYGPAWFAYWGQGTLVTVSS VL: DIVMTQSPDSLAVSLGERATINCKSSQSLLNSANQKNYLAWYQQKPGQPPKLLIYFASTRESGVPDRFSGSGSGTDFTLTISSLQAEDVAVYYCQSHFPYPLTFGGGTKVEIK"
measured_endpoint = "Kd"
obs_value = "90 nM"

